# ASSAYED SYSTEM: hBPGM (Homo sapiens)
# Sequence (P07738 1-259): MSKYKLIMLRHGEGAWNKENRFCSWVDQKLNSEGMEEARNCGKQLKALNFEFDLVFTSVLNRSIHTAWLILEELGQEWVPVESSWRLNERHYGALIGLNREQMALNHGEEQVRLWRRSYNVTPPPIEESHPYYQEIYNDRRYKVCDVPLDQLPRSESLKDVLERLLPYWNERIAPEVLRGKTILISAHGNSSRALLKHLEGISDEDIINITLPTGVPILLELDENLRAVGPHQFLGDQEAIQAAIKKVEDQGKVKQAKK
# TEST NAME: BPGM synthase assay
# Type: biochemical
# TEST SETTINGS: Table 6; read-out: huBPGM: synthase Enzyme IC50
pIC50: −log10 of the molar value.
Note to self: values exactly at 6 are 1.0. So pIC50 at or above 6 is 1.0, below is 0.0.

1. Cc1nc(NC(=O)OC(C)(C)C)sc1-c1cccc(-c2cc(F)c3[nH]nnc3c2F)n1    1.0
2. Cc1nc(COc2ncccn2)sc1-c1cccc(-c2ccc3nn[nH]c3c2)n1    1.0
3. Cc1nc(COc2ncccn2)sc1-c1ccnc(-c2cc(F)c(O)c(F)c2F)c1    1.0
4. COC(=O)NCc1nc(C)c(-c2csc(-c3cc(O)c(S(N)(=O)=O)cc3F)n2)s1    0.0
5. Cc1nc(COc2ncccn2)sc1-c1cccc(-c2cc[n+]([O-])cc2)n1    0.0
6. Cc1nc(CO)sc1-c1cccc(-c2cc(F)c3nn[nH]c3c2F)n1    1.0
7. Cc1nc(CNc2ncccn2)sc1-c1csc(-c2cc(F)c3[nH]nnc3c2)n1    1.0
8. Cc1nc(CNC(=O)C(C)(C)C)sc1-c1csc(-c2cc(F)c(O)c(F)c2)n1    0.0
9. Cc1nc(CNc2cccnn2)sc1-c1csc(-c2cc(F)c(O)c(F)c2F)n1    1.0
10. Cc1nc(COC(C)C(=O)N(C)C)sc1-c1cccc(-c2cc(F)c3nn[nH]c3c2F)n1 (stereo not drawn)    1.0
11. Cc1nc(C)c(-c2cnn(-c3cc(F)c4[nH]nnc4c3F)c2)s1    0.0
12. Cc1nc(CNC(=O)C2CCN(C)CC2)sc1-c1csc(-c2cc(F)c(O)c(F)c2F)n1    0.0
13. COC(=O)NCc1nc(C)c(-c2csc(-c3cnc(O)nc3)n2)s1    0.0
14. Cc1nc(COCC(=O)C2CCNCC2)sc1-c1csc(-c2cc(F)c(O)c(F)c2F)n1    0.0
